Target: T1, human CLDN18.2 (human)
T1 construct: over-expressed on HEK293T or OCUM-1 cells by lentivirus; KATO-III and NUGC4 gastric cancer cells express it naturally; also called hCLDN18.2; hCLDNA18.2
Test: imaging cytometry (% fluorescent cells), HEK293-hCLDN18.2 cells
assay readout: EC50 (µg/mL)
Expressed in µg/mL, but write only the number.

Below: 4 binders and their reported EC50.
>  <binder>
44A8 (antibody, V domains shown, murine monoclonal antibody purified from hybridoma culture supernatant) VH: EVRLQQSGPELVKPGASVKMSCKASGYTFTDYNMHWVKQSHGKSLEWIGYINPKNGGIRYNQKFTGKATLTVNKSSSTAYMELRSLTSEDSAVYYCARGGYYGNTLDNWGQGTSVTVSS VL: DIVMTQSPSSLTLTAGEKVTMSCKSSQSLLNSGNQKNYLTWYQQKPGQPPKLLIYWASTSESGVPDRFTGSGSGTDFTLTISSVQAEDLAIYYCQNAYFYPWTFGGGTKLEIK

>  <unit symbol>
µg/mL

>  <value>
0.034

$$$$
>  <binder>
1D10 (antibody, V domains shown, murine monoclonal antibody purified from hybridoma culture supernatant; also called ID10) VH: QVQLQQPGAELVKPGASVKLSCKASGYTFTSYWMHWVKQRPGQGLEWIGMIYPNSGSINYNEKFKNKATLTVDKSSSTAYMQLSSLTSEDSAVYFCSVYFDYWGQGTTLTVSS VL: DIQGTQSPSSLSASLGERVSLTCRASQDIGSSLNWLQQEPDGTIKRLIYATSSLDSGVPKRFSVSRSGSDYSLTISSLESEDFVDYYCLQYASSPPTFGGGTKLEIK

>  <unit symbol>
µg/mL

>  <value>
0.018

$$$$
>  <binder>
5F9 (antibody, V domains shown, murine monoclonal antibody purified from hybridoma culture supernatant) VH: QVQLQQSGAELVKPGASVKLSCKASGYTFTSYWMHWVKQRPGQGLEWIGMIHPNSVSTNYNEKFKSKATLTVDKSSSTAYMQLSSLTSEDSAVYYCAVYFDYWGQGTTLTVSS VL: DIQVTQSPSSLSASLGERVSLTCRASQDIGSSLNWLQQEPDGTIKRLIYASSSLNSGVPKRFSVSRSGSDYSLTISSLESEDFVDYYCLQYATSPPTFGGGTKLEIK

>  <unit symbol>
µg/mL

>  <value>
0.091

$$$$
>  <binder>
37B1 (antibody, V domains shown, murine monoclonal antibody purified from hybridoma culture supernatant) VH: EVRLQQSGPELVKPGASVKMSCKASGYSFTDYNMHWVKQSHGKSPEWVGYINPNKGGTGYNQKFKGKATLTVNKSSSTANMELRSLTSEDSAVYYCARIWYGNSFAYWGQGTLVTVSA VL: DVVMTQSPSSLTVTAGEKVTMSCKSSQSLLNSGNQKNYLTWYQQKPGQPPKLLIYWASTRESGVPDRFTGSGSGTDFTLTISSVQAEDLAVYFCQNDYFYPFTFGSGTKLEIK

>  <unit symbol>
µg/mL

>  <value>
0.04

$$$$

Then there is this binder:
Enquiry: Please indicate EC50 recorded for 27B5 (antibody, V domains shown, murine monoclonal antibody purified from hybridoma culture supernatant) VH: QVQLQQPGTELVKPGASVKLSCKASGYTFTSYWMHWVKQRPGQGLEWIGNIHPSNGGSNHNEKFKSKATLTVDKSSSTAYMQLSSLTSEDSAVYYCAPIYYGNSLAYWGHGTLVTVSA VL: DVVMTQSPSSLTVTAGEKVTMSCKSSQSLLNSGNQKNYLTWYQQKPGQPPKLLLYWASTRESGVPDRFTGSGSGTDFTLTISSVQAEDLAVYYCQNSYFYPFTFGSGTKLEIK
Return: 0.041

Reference for the values: patent US20210403552A1
